Provide the recorded Phage binding ELISA, Anti-PSMA Fab signal in the presence of PSMA for the entries that follow.
Molecular target: T1, Anti-PSMA Fab (SEQ ID NOs: 19, 20)
T1 construct: Biotinylated Fab captured on neutravidin coated plates in the phage ELISA; also called 006 PSMA Fab
Experiment: phage ELISA; PSMA Fab on plate pre-incubated with PSMA antigen as competitor, anti-M13 HRP
Numbers only.

Fill in Phage binding ELISA, Anti-PSMA Fab signal in the presence of PSMA for each of the 7 binders listed.
1. VTAWCIPEWMCVGV (Clonal phage of the peptide-180 library) [Phage-2122]
2. LMKWCIPDWMCSHV (Clonal phage of the peptide-180 library) [Phage-2131]
3. YAKWCIPEWMCAVS (Clonal phage of the peptide-180 library) [Phage-2119]
4. EIKWCVPQWMCENQ (Clonal phage of the peptide-180 library) [Phage-2117]
5. PLPWCIPVWMCSMI (Clonal phage of the peptide-180 library) [Phage-2129]
6. WDKWCIPEWMCVTQ (Clonal phage of the peptide-180 library) [Phage-2127]
7. EFKWCTPPWMCQWD (Clonal phage of the peptide-180 library) [Phage-2125]

1: 0.0929; 2: 0.0763; 3: 0.12; 4: 0.0643; 5: 0.161; 6: 0.1; 7: 0.101

Source listed as patent US20260242478A1.
